Experiment: reduced mouse 2C T cell binding to pMHC/ICAM-1 vesicles – MLPCN validation set, flow cytometry, LFA-1/ICAM-1 modulator project, pilot screen (AID 2523);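 further: mean PE anti-B7-1 fluorescence of CD8+ cells relative to row control; 100% = QL9-loaded vesicles with DMSO vehicle in the same plate row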
Conditions: 2C mouse CD8+ T cells, at 7 µM, active compounds read low
Reported property: vesicle binding response (%)
The reply should contain only the number, in %.

*Q* # query: vesicle binding response of entry `Cc1ncc(CN2CCC(CO)(CCc3ccccc3)CC2)s1`
*A* 98.1

*Q* # query: vesicle binding response of entry COc1ccc2[nH]c3c(=O)n(/N=C/[C@H]4C(C)C=C(C)CC4C)c(=O)[nH]c3c2c1 (stereo not given in full)
*A* 6260

*Q* # query: vesicle binding response of entry `Cc1cccc2c1CC(C)(C)N/C2=C\C(N)=O`
*A* 148
